Assay procedure: inhibitors of TNFa-induced NFkB p65 translocation, primary screen, imaging, HUVEC, MLSMR starter and 10KST1 sets (AID 438);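 further: compound added about 3h40 before a 20 min TNFalpha stimulation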
Run parameters: HUVEC TNFa-induced p65 nuclear translocation; measured here: nuclei count (cytotoxicity indicator), at 2.08 µM
Metric name: cell count

Note cell count for the molecule shown: CCCc1[nH]nc2c1C(c1cccc(OC(=O)c3ccco3)c1)C(C#N)=C(N)O2 (configuration not stated) 687

Note cell count for the molecule shown: C=C(C)Cn1c(SCC)nc2ccccc2c1=O 399

Note cell count for the molecule shown: CC(NC(=O)c1ccccc1NC(=O)c1ccco1)C(=O)O (configuration not stated) 438

Continue with the molecule presented below.
Note cell count for the molecule shown: COc1ccc2nc(C)cc(N3CCOCC3)c2c1 401
